Test system: SF-539
measurement.notes: NCI tumour cell line growth inhibition, 48 h
The source made the active and inactive calls. Rule as the data show it: active = GI50 up to about 1.1 µM and inactive = higher.
Overview of reported GI50 across a group of compounds:
quantity.name: GI50

{"smiles.input": "C#CC1(O)CCCCCCCCC2(CCCCCCCC1)OCCO2", "system.name": "SF-539", "quantity.name": "GI50", "result.value": "18 µM (inactive)"}
{"smiles.input": "CN(CCO)c1nc2c(c(=O)[nH]1)CNCC2", "system.name": "SF-539", "quantity.name": "GI50", "result.value": "> 100 µM (inactive)"}
{"smiles.input": "O=C(O)c1ccc(O)c(/N=N/c2cc(S(=O)(=O)O)c3ccccc3c2O)c1", "system.name": "SF-539", "quantity.name": "GI50", "result.value": "> 10 µM (inactive)"}
{"smiles.input": "O=C(OCCN=C1c2ccccc2CCc2ccccc21)c1cc([N+](=O)[O-])cc([N+](=O)[O-])c1", "system.name": "SF-539", "quantity.name": "GI50", "result.value": "> 31.6 µM (inactive)"}
{"smiles.input": "O=C1c2ccccc2C(=O)c2sc(Nc3ccccc3C(F)(F)F)nc21", "system.name": "SF-539", "quantity.name": "GI50", "result.value": "19.9 µM (inactive)"}
